Collected set of IC50 measured with MALT1 (Homo sapiens) across studies.
Sequence (Q9UDY8 whole entry): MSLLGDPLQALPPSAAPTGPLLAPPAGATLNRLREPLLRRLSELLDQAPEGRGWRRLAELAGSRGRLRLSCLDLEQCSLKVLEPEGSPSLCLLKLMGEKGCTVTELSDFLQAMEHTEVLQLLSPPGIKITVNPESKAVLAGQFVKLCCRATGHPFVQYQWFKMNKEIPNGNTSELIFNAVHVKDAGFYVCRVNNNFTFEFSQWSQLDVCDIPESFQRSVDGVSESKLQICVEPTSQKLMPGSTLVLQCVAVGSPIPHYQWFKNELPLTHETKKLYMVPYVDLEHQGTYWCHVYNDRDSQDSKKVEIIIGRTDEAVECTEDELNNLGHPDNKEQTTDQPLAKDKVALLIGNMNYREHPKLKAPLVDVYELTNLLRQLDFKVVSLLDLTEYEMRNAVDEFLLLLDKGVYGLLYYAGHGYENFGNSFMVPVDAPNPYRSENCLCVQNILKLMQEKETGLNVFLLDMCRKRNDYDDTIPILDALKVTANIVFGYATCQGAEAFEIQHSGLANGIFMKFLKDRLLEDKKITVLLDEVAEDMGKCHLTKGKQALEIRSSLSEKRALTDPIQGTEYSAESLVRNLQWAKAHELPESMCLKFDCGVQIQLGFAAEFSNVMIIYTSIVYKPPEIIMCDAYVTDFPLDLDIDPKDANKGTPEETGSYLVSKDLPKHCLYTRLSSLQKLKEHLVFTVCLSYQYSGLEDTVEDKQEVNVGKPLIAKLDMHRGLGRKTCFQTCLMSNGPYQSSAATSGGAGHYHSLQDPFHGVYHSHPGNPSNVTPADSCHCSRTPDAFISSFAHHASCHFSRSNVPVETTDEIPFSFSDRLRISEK
RECORDED ENDPOINT: IC50

>>> val("Cn1ncc2cccc(NS(=O)(=O)c3cnn(-c4cc(C5(O)CC(F)(F)C5)ccn4)c3)c21")
"> 2.5 µM"
>>> val("N#CCNC(=O)c1ncc(NC(=O)c2cc(F)c(-c3ccc(F)cc3N)cc2Cl)cc1Cl")
"0.01 to 0.1 µM"
>>> val("Nc1cncc(Br)c1-c1cc(Cl)c(C(=O)Nc2cnc(-n3nccn3)c(C(F)(F)F)c2)cc1F")
"≤ 0.01 µM"
>>> val("COc1ncc2cnn(C)c2c1NS(=O)(=O)c1cnn(-c2cc(N3CCC(C)CC3)ccn2)c1")
"> 2.5 µM"
>>> val("Cn1ncc2cccc(NS(=O)(=O)c3ccc(-n4nc(C(F)(F)F)c5c4CCOC5)nc3)c21")
"> 2.5 µM"
>>> val("CCc1ccc2cnn(C)c2c1NS(=O)(=O)c1ccc(-n2nccc2C(F)(F)F)nc1")
"< 0.4 µM"
>>> val("COc1ncc2cnn(C)c2c1NS(=O)(=O)c1ccc(-n2cc(C(F)F)cn2)nc1")
"< 0.4 µM"
>>> val("COc1ccc2cnn(C)c2c1NS(=O)(=O)c1ccc(N2CCOC2=O)nc1")
"> 2.5 µM"
>>> val("CCOc1ccc2cnn(C)c2c1NS(=O)(=O)c1cnn(-c2ccnc(C(F)(F)F)c2)c1")
"≤ 0.4 µM"
>>> val("C#Cc1cncc(N)c1-c1cc(Cl)c(C(=O)Nc2cnc(-n3nccn3)c(Cl)c2)cc1F")
"≤ 0.01 µM"
>>> val("COc1ccc2cnn(C)c2c1NS(=O)(=O)c1cnn(-c2cnc3n2CCOC3)c1")
"> 2.5 µM"
>>> val("COC[C@@H](OC)c1ccnc(-n2cc(S(=O)(=O)Nc3cccc4cnn(C)c34)cn2)c1")
"> 2.5 µM"
>>> val("COc1ccc2nnn(C)c2c1NS(=O)(=O)c1ccc(-n2ccc(C(F)(F)F)n2)nc1")
"1 to 2.5 µM"
>>> val("Cn1ncc2cccc(NS(=O)(=O)c3ccc(-n4cc(CO)cn4)nc3)c21")
"> 2.5 µM"
>>> val("COc1ccc2cnn(C)c2c1NS(=O)(=O)c1cnn(-c2cc(C3(OC)CC4(CC4)C3)ccn2)c1")
"0.4 to 1 µM"
>>> val("Cc1n[nH]c2cccc(NS(=O)(=O)c3cnn(-c4cc(C(C)(C)O)ccn4)c3)c12")
"> 2.5 µM"
